# Tested on: Streptococcus pneumoniae
# TEST_DETAILS: Antimicrobial activity against Streptococcus pneumoniae PC13 transformants
# Assay type: functional
VALUE_TYPE: MIC

{"COMPOUND": "CC[C@H]1OC(=O)[C@H](C)[C@@H](O[C@H]2C[C@@](C)(OC)[C@@H](O)[C@H](C)O2)[C@H](C)[C@@H](O[C@@H]2O[C@H](C)C[C@H](N(C)C)[C@H]2O)[C@](C)(O)C[C@@H](C)C(=O)[C@H](C)[C@@H](O)[C@]1(C)O [ERYTHROMYCIN]", "MIC": "> 256 µg/mL"}

Value of MIC reported for the compound O=C(N[C@H](CO)[C@H](O)c1ccc([N+](=O)[O-])cc1)C(Cl)Cl [CHLORAMPHENICOL] is 12 µg/mL

Value of MIC reported for the compound CC[C@H]1OC(=O)[C@H](C)[C@@H](O[C@H]2C[C@@](C)(OC)[C@@H](O)[C@H](C)O2)[C@H](C)[C@@H](O[C@@H]2O[C@H](C)C[C@H](N(C)C)[C@H]2O)[C@](C)(O)C[C@@H](C)CN(C)[C@H](C)[C@@H](O)[C@]1(C)O [AZITHROMYCIN] is > 256 µg/mL

----------
Listed here are molecules together with their documented MIC.
# Tested on: Streptococcus pneumoniae
# TEST_DETAILS: Antimicrobial activity against Streptococcus pneumoniae PC13 isolate with L4 69GTG71 to TPS mutation
# Format: functional

{"COMPOUND_STRUCTURE": "CC[C@H]1OC(=O)[C@H](C)[C@@H](O[C@H]2C[C@@](C)(OC)[C@@H](O)[C@H](C)O2)[C@H](C)[C@@H](O[C@@H]2O[C@H](C)C[C@H](N(C)C)[C@H]2O)[C@](C)(OC)C[C@@H](C)C(=O)[C@H](C)[C@@H](O)[C@]1(C)O", "MIC": "> 256 µg/mL"}
{"COMPOUND_STRUCTURE": "CC[C@H]1OC(=O)[C@H](C)[C@@H](O[C@H]2C[C@@](C)(OC)[C@@H](O)[C@H](C)O2)[C@H](C)[C@@H](O[C@@H]2O[C@H](C)C[C@H](N(C)C)[C@H]2O)[C@](C)(O)C[C@@H](C)CN(C)[C@H](C)[C@@H](O)[C@]1(C)O", "MIC": "> 256 µg/mL"}
{"COMPOUND_STRUCTURE": "CN(C)[C@@H]1C(O)=C(C(N)=O)C(=O)[C@@]2(O)C(O)=C3C(=O)c4c(O)cccc4[C@@](C)(O)[C@H]3C[C@@H]12", "MIC": "8 µg/mL"}
{"COMPOUND_STRUCTURE": "CC[C@H]1OC(=O)[C@H](C)[C@@H](O[C@H]2C[C@@](C)(OC)[C@@H](O)[C@H](C)O2)[C@H](C)[C@@H](O[C@@H]2O[C@H](C)C[C@H](N(C)C)[C@H]2O)[C@](C)(O)C[C@@H](C)C(=O)[C@H](C)[C@@H](O)[C@]1(C)O", "MIC": "> 256 µg/mL"}
{"COMPOUND_STRUCTURE": "CC[C@H]1OC(=O)[C@H](C)C(=O)[C@H](C)[C@@H](O[C@@H]2O[C@H](C)C[C@H](N(C)C)[C@H]2O)[C@](C)(OC)C[C@@H](C)C(=O)[C@H](C)[C@H]2N(CCCCn3cnc(-c4cccnc4)c3)C(=O)O[C@]12C", "MIC": "> 256 µg/mL"}

Value of MIC reported for the molecule `O=C(N[C@H](CO)[C@H](O)c1ccc([N+](=O)[O-])cc1)C(Cl)Cl` is 12 µg/mL

Value of MIC reported for the molecule `CCC[C@@H]1C[C@@H](C(=O)N[C@@H]([C@H]2O[C@H](SC)[C@H](O)[C@@H](O)[C@H]2O)[C@H](C)Cl)N(C)C1` is > 256 µg/mL

----------
Listed here are compounds together with their documented MIC.
# System: Streptococcus pneumoniae
# TEST_DETAILS: Antimicrobial activity against Streptococcus pneumoniae PC13 isolate with L4 mutation
# Assay type: functional

Observe how each entry below is paired with its result.
{"COMPOUND": "CCC[C@@H]1C[C@@H](C(=O)N[C@@H]([C@H]2O[C@H](SC)[C@H](O)[C@@H](O)[C@H]2O)[C@H](C)Cl)N(C)C1 [CLINDAMYCIN]", "MIC": "> 256 µg/mL"}
{"COMPOUND": "CC[C@H]1OC(=O)[C@H](C)[C@@H](O[C@H]2C[C@@](C)(OC)[C@@H](O)[C@H](C)O2)[C@H](C)[C@@H](O[C@@H]2O[C@H](C)C[C@H](N(C)C)[C@H]2O)[C@](C)(OC)C[C@@H](C)C(=O)[C@H](C)[C@@H](O)[C@]1(C)O [CLARITHROMYCIN]", "MIC": "> 256 µg/mL"}
{"COMPOUND": "CC[C@H]1OC(=O)[C@H](C)[C@@H](O[C@H]2C[C@@](C)(OC)[C@@H](O)[C@H](C)O2)[C@H](C)[C@@H](O[C@@H]2O[C@H](C)C[C@H](N(C)C)[C@H]2O)[C@](C)(O)C[C@@H](C)CN(C)[C@H](C)[C@@H](O)[C@]1(C)O [AZITHROMYCIN]", "MIC": "> 256 µg/mL"}

Next compound, please.
Value of MIC reported for the compound O=C(N[C@H](CO)[C@H](O)c1ccc([N+](=O)[O-])cc1)C(Cl)Cl [CHLORAMPHENICOL] is 12 µg/mL

----------
# System: Streptococcus pneumoniae
# TEST_DETAILS: Antimicrobial activity against Streptococcus pneumoniae PC13 isolate with L4 mutation
# Format: functional
Listed here are compounds together with their documented MIC.

Observe how each entry below is paired with its result.
{"COMPOUND_STRUCTURE": "CC[C@H]1OC(=O)[C@H](C)C(=O)[C@H](C)[C@@H](O[C@@H]2O[C@H](C)C[C@H](N(C)C)[C@H]2O)[C@](C)(OC)C[C@@H](C)C(=O)[C@H](C)[C@H]2N(CCCCn3cnc(-c4cccnc4)c3)C(=O)O[C@]12C", "VALUE_TYPE": "MIC", "RECORDED_RESULT": "> 256 µg/mL"}
{"COMPOUND_STRUCTURE": "CN(C)[C@@H]1C(O)=C(C(N)=O)C(=O)[C@@]2(O)C(O)=C3C(=O)c4c(O)cccc4[C@@](C)(O)[C@H]3C[C@@H]12", "VALUE_TYPE": "MIC", "RECORDED_RESULT": "12 µg/mL"}

Value of MIC reported for the compound `CC[C@H]1OC(=O)[C@H](C)[C@@H](O[C@H]2C[C@@](C)(OC)[C@@H](O)[C@H](C)O2)[C@H](C)[C@@H](O[C@@H]2O[C@H](C)C[C@H](N(C)C)[C@H]2O)[C@](C)(O)C[C@@H](C)C(=O)[C@H](C)[C@@H](O)[C@]1(C)O` is > 256 µg/mL

----------
Listed here are molecules together with their documented MIC.
# Tested on: Streptococcus pneumoniae
# TEST_DETAILS: Antimicrobial activity against Streptococcus pneumoniae PC13 transformants
# Type: functional
Express it in µg/mL; write the number only.

{"COMPOUND_STRUCTURE": "CC[C@H]1OC(=O)[C@H](C)C(=O)[C@H](C)[C@@H](O[C@@H]2O[C@H](C)C[C@H](N(C)C)[C@H]2O)[C@](C)(OC)C[C@@H](C)C(=O)[C@H](C)[C@H]2N(CCCCn3cnc(-c4cccnc4)c3)C(=O)O[C@]12C", "TARGET_OR_SYSTEM": "Streptococcus pneumoniae", "UNIT_TAG": "µg/mL", "MIC": 0.06}

Next molecule, please.
Value of MIC reported for the molecule `CN(C)[C@@H]1C(O)=C(C(N)=O)C(=O)[C@@]2(O)C(O)=C3C(=O)c4c(O)cccc4[C@@](C)(O)[C@H]3C[C@@H]12` is 12
